Target: N48K Clarin-1 (Homo sapiens, UniProt P58418, N48K)
Construct: expressed in transfected cells
Sequence (P58418 whole entry N48K): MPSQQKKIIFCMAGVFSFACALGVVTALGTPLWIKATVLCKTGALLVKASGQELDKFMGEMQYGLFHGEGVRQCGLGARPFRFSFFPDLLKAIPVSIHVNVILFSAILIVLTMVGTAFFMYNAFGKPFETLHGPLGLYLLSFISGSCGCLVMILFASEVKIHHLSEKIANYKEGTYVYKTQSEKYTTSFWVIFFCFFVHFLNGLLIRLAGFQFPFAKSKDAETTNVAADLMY
Experiment: Restoration of expression of N48K Clarin-1, 2 hour incubation then 22 hr fresh medium (high content imaging of HA-tagged N48K Clarin-1)
Assay type: cell-based
Details: HEK293-Clarin-1 N48K-HA D9 cell line, 2 hr incubation with compound, then 22 hr in fresh medium
pIC50: −log10 of the molar value.
Observable: pIC50

Compound | Value reported
F[C@H]1CCN(CCn2nc(-c3ccccc3)c3c(Cl)c(-c4ccccc4)nnc32)C1 [IIt] | ≥ 5.40
Cc1ccc(-c2nn(CCN3CCN(C)CC3)c3nnc(-c4ccccc4)c(Cl)c23)o1 [Io] | ≥ 5.40
F[C@@H]1CCN(CCn2nc(I)c3c(Cl)c(-c4ccccc4)nnc32)C1 [Ip] | 5.10 to 5.40
F[C@@H]1CCN(CCn2nc(-c3ccccc3)c3c(Cl)c(-c4ccccc4)nnc32)C1 [IIu] | ≥ 5.40
Cn1cncc1Cn1nc(-c2ccccc2)c2c(Cl)c(-c3ccccc3)nnc21 [IIa] | 5.10 to 5.40
Cn1cc(Cn2nc(-c3ccccc3)c3c(Cl)c(-c4ccccc4)nnc32)cn1 [IIg] | ≥ 5.40
O=C(Cn1nc(I)c2c(Cl)c(-c3ccccc3)nnc21)N1CC[C@@H](F)C1 [It] | 5.10 to 5.40
Clc1c(-c2ccccc2)nnc2c1c(-c1ccccc1)nn2CCn1cccn1 [XIVa] | ≥ 5.40
CN1CCN(CCn2nc(N3CCCC3)c3c(Cl)c(-c4ccccc4)nnc32)CC1 [Iz] | ≥ 5.40
Clc1c(-c2ccccc2)nnc2c1c(-c1ccccc1)nn2Cc1cocn1 [IIh] | ≥ 5.40
Clc1c(-c2ccccc2)nnc2c1c(-c1ccccc1)nn2Cc1cccnc1 [IIn] | ≥ 5.40
Fc1ccc(-c2nn(CCN3CC[C@@H](F)C3)c3nnc(-c4ccccc4)c(Cl)c23)cc1 [IIy] | ≥ 5.40
CN1CCN(CCn2nc(-c3ccc4c(c3)CCO4)c3c(Cl)c(-c4ccccc4)nnc32)CC1 [Il] | ≥ 5.40
Cc1ccc(-c2nn(CCN3CCN(C)CC3)c3nnc(-c4ccccc4)c(Cl)c23)s1 [Icc] | ≥ 5.40
Clc1c(-c2ccccc2)nnc2c1c(C1=CCOCC1)nn2CCN1CCCC1 [Is] | ≥ 5.40
Fc1cccc(-c2nn(CCN3CC[C@@H](F)C3)c3nnc(-c4ccccc4)c(Cl)c23)c1 [IIx] | ≥ 5.40
Cc1nn(CCN2CCCC2)c2nnc(-c3ccccc3)c(Cl)c12 [XIIId] | 5.10 to 5.40
CS(=O)(=O)CCn1nc(-c2ccccc2)c2c(Cl)c(-c3ccccc3)nnc21 [IIq] | ≥ 5.40
Cn1cncc1Cn1nc(-c2cccn2C)c2c(Cl)c(-c3ccccc3)nnc21 [XIIIb] | 5.10 to 5.40

----------
Quick list: EC50 per entry.
Molecular target: N48K Clarin-1 (Homo sapiens, UniProt P58418, N48K)
Assay: Restoration of expression of N48K Clarin-1, 24 hour incubation (high content imaging of HA-tagged N48K Clarin-1)
Settings: HEK293-Clarin-1 N48K-HA D9 cell line, 24 hr incubation with compound; read-out: IC50 (the source's name)
Observable: EC50

Chemical string | Value reported
CN1CCN(CCn2nc(C3=CCOCC3)c3c(Cl)c(-c4ccccc4)nnc32)CC1 | ≤ 2000 nM
Cn1nc(-c2ccccc2)c2c(Cl)c(-c3ccsc3)nnc21 | ≤ 2000 nM
CN1CCN(CCn2nc(/C=C/c3ccccc3)c3c(Cl)c(-c4ccccc4)nnc32)CC1 | ≤ 2000 nM
Cc1nn(C)c2nnc(-c3ccccc3)c(Br)c12 | 2000 to 5000 nM
CN(C)CCNC(=O)Cn1nc(-c2cccnc2)c2c(Cl)c(-c3ccccc3)nnc21 | 2000 to 5000 nM
Clc1c(-c2ccccc2)nnc2c1c(-c1ccccc1)nn2Cc1cocn1 | ≤ 2000 nM
O=C(Cn1nc(C2=CCCC2)c2c(Cl)c(-c3ccccc3)nnc21)N1CCCC1 | ≤ 2000 nM
FC(F)(F)Cn1nc(-c2ccccc2)c2c(Cl)c(-c3ccccc3)nnc21 | ≤ 2000 nM
Clc1c(-c2ccccc2)nnc2c1c(-c1ccccc1)nn2CCn1ccnc1 | ≤ 2000 nM
CN1CCN(CCn2nc(-c3cccn3C)c3c(Cl)c(-c4ccccc4)nnc32)CC1 | ≤ 2000 nM
